Tested on: A498 renal
Assay: NCI tumour cell line growth inhibition, 48 h

{"compound": "CN(C)c1ccc(/C=C/c2sc3ccc4ccccc4c3[n+]2C)cc1", "assay target": "A498 renal", "TGI": "2.85 µM"}
{"compound": "FC(F)(F)c1ccc(C=NC23CC4CC(CC(C4)C2)C3)cc1", "assay target": "A498 renal", "TGI": "> 100 µM"}
{"compound": "C=CC1OC(CCCOC(=O)C(C)(C)C)O[C@@H]1CC (stereo partly specified)", "assay target": "A498 renal", "TGI": "> 100 µM"}
{"compound": "Cn1cc2c(n1)c(N/N=C/c1ccccc1)nn1nnnc21", "assay target": "A498 renal", "TGI": "> 100 µM"}
{"compound": "NC1=NC(c2ccccc2)N=C(Nc2ccccc2)N1 (stereo unspecified)", "assay target": "A498 renal", "TGI": "> 100 µM"}
{"compound": "O=c1ccc2ccccc2o1", "assay target": "A498 renal", "TGI": "> 100 µM"}

---

System: SK-MEL-28 melanoma
Assay: NCI tumour cell line growth inhibition, 48 h

{"compound": "Cn1ccc(=Nc2ccc(NC(=O)c3ccc(N=c4ccn(C)c5ccc([N+](=O)[O-])cc45)cc3)cc2)cc1", "TGI": "92.3 µM"}
{"compound": "O=[N+]([O-])c1ccc(NC2OCC(O)C(O)C2O)cc1 (stereo not given)", "TGI": "> 100 µM"}
{"compound": "CC1=C(C(=O)Nc2ccccc2C)C(c2ccc([N+](=O)[O-])cc2)C(C(=O)Nc2ccccc2C)=C(C)N1", "TGI": "> 100 µM"}
{"compound": "C=C1C(=O)O[C@H]2[C@H]1CC/C(COC(=O)C(=O)c1c[nH]c3ccc(OC)cc13)=C\\CC[C@@]1(C)O[C@@H]21", "TGI": "9.55 µM"}
{"compound": "COc1cc2cc(Oc3ccc(NC(=O)Nc4ccccc4)cc3)c(C)nc2cc1OCCN1CCCCC1", "TGI": "9.92 µM"}
{"compound": "COc1ccc(-c2cnc(-c3ccc(F)cc3)[nH]2)cc1", "TGI": "8.5 µM"}
{"compound": "Cn1c(N2CCCC2)c(C=O)c(=O)n(C)c1=O", "TGI": "> 100 µM"}
{"compound": "Nc1ccn([C@H]2C[C@@H](O)[C@@H](CO)S2)c(=O)n1", "TGI": "> 100 µM"}
{"compound": "CC1CCCC(C(O)CC2CC(=O)N(c3ccccc3)C(=O)C2)C1=O (stereo not given)", "TGI": "> 100 µM"}
{"compound": "CCOc1ccccc1NC(=O)CCc1nnc2s/c(=C\\CCc3ccccc3)c(=O)n12", "TGI": "> 100 µM"}

---

Test system: 786-0 renal
Assay: NCI tumour cell line growth inhibition, 48 h; in the data active = GI50 below about 0.43 µM; inactive = the rest
Possible outcomes: true for active, false for inactive

{"smiles input": "COc1cc2c3c(n(CCN)c(=O)c2cc1OC)-c1cc2c(cc1C3=O)OCO2", "assay target": "786-0 renal", "qualitative label": "true"}
{"smiles input": "COc1c2ccccc2c(O)c2c(=O)c(C(=O)O)cn(C)c12", "assay target": "786-0 renal", "qualitative label": "false"}
{"smiles input": "CC[C@@]1(O)C(=O)OCc2c1cc1n(c2=O)Cc2cc3cc(OC)ccc3nc2-1", "assay target": "786-0 renal", "qualitative label": "true"}

---

Listing: TGI of selected molecules
System: PC-3 prostate
Test: NCI tumour cell line growth inhibition, 48 h
endpoint: TGI (µM)

{"molecule": "Cc1ccc(/C=C2\\NC(=S)N(CN3CCOCC3)C2=O)cc1", "assay target": "PC-3 prostate", "endpoint": "TGI", "value modifier": ">", "readout value": 100}
{"molecule": "C=C(CNCCc1ccc(O)cc1)[C@@H]1CC[C@]2(CO)CC[C@]3(C)[C@H](CC[C@@H]4[C@@]5(C)CCC(=O)C(C)(C)[C@@H]5CC[C@]43C)[C@@H]12", "assay target": "PC-3 prostate", "endpoint": "TGI", "value modifier": "=", "readout value": 2.69}
{"molecule": "Oc1ccc(-c2nc3cc(C(F)(F)F)ccc3n2CC2CCCN3CCCCC23)cc1 (configuration not stated)", "assay target": "PC-3 prostate", "endpoint": "TGI", "value modifier": "=", "readout value": 27.1}
{"molecule": "COc1cc(/C=C2\\N=C(c3ccccc3)N(C3Nc4cc5c(cc4S3)NC(N3C(=O)/C(=C/c4cc(OC)c(OC)c(OC)c4)N=C3c3ccccc3)S5)C2=O)cc(OC)c1OC (configuration not stated)", "assay target": "PC-3 prostate", "endpoint": "TGI", "value modifier": ">", "readout value": 100}
{"molecule": "CCCCCCOc1ccc(NC2=C(Cl)C(=O)c3cccnc3C2=O)cc1", "assay target": "PC-3 prostate", "endpoint": "TGI", "value modifier": ">", "readout value": 10}
{"molecule": "C=C1C(=O)OC2/C=C(\\C)C(O)CC(O)C(C)(O)CC(OC(=O)/C(C)=C/C)C12 (configuration not stated)", "assay target": "PC-3 prostate", "endpoint": "TGI", "value modifier": ">", "readout value": 100}
{"molecule": "COC(=O)C1OC(O[C@H]2CC[C@]3(C)[C@H]4CC=C5[C@@H]6CC(C)(C)CC[C@]6(C(=O)OC)[C@H](O)C[C@@]5(C)[C@]4(C)CC[C@H]3C2(C)C)C(O)C(O)C1O (some centres not stated)", "assay target": "PC-3 prostate", "endpoint": "TGI", "value modifier": "=", "readout value": 19.8}

---

Test system: NCI-H226 lung
Assay: NCI tumour cell line growth inhibition, 48 h

{"molecule": "Cc1ccc(S(=O)(=O)Oc2ccc3c4c(c(=O)oc3c2)CCCCC4)cc1", "GI50": "7.5 µM"}
{"molecule": "C=C(CNCCc1ccc(O)cc1)[C@@H]1CC[C@]2(CO)CC[C@]3(C)[C@H](CC[C@@H]4[C@@]5(C)CCC(=O)C(C)(C)[C@@H]5CC[C@]43C)[C@@H]12", "GI50": "1.62 µM"}
{"molecule": "COc1cc(NN=C(c2ccc(O)cc2)c2ccc(O)cc2)c([N+](=O)[O-])cc1[N+](=O)[O-]", "GI50": "23.6 µM"}
{"molecule": "Cn1ccc(=Nc2ccc(NC(=O)c3ccc(N=c4ccn(C)c5ccc([N+](=O)[O-])cc45)cc3)cc2)cc1", "GI50": "74.3 µM"}
{"molecule": "Nc1nc2c(c3ncccc13)C(c1cccc(Cl)c1)Cc1ncccc1-2 (centres undefined)", "GI50": "19.6 µM"}
{"molecule": "O=S(=O)(NC(=S)Nc1ccccc1)c1ccc(N2N=C3c4ccccc4CC3C2c2cccs2)cc1 (centres undefined)", "GI50": "27.2 µM"}
{"molecule": "COC(=O)c1c2c(c(C)[n+]([O-])c1C)C(=O)C=C(NCc1cccc(OC)c1)C2=O", "GI50": "1.72 µM"}
{"molecule": "CN1CCN(c2ccc(-c3cnc4c(-c5csc6ccccc56)cnn4c3)cc2)CC1", "GI50": "13.5 µM"}
{"molecule": "COC(=O)c1ccc(=O)c2nc3/c(=C/O)c(O)cc(=O)c3[nH]c12", "GI50": "0.726 µM"}

---

Test system: HCT-15 colon
Assay: NCI tumour cell line growth inhibition, 48 h; in the data active = GI50 below about 0.43 µM; inactive = the rest
Possible outcomes: Yes (active), No (inactive)

{"molecule": "O=C1C(Cl)=C(Nc2ccc3cn[nH]c3c2)C(=O)c2ccccc21", "qualitative label": "No"}
{"molecule": "CC(CN)[C@@H]1CC[C@]2(CO)CC[C@]3(C)[C@H](CC[C@@H]4[C@@]5(C)CCC(NCCO)C(C)(C)[C@@H]5CC[C@]43C)[C@@H]12 (some centres not stated)", "qualitative label": "No"}
{"molecule": "Cc1ccc(S(=O)(=O)Oc2ccc3c4c(c(=O)oc3c2)CCCCC4)cc1", "qualitative label": "No"}
{"molecule": "CCC(=O)OC1CCn2c1nc1c2C(=O)C(C)=C(N2CC2)C1=O (configuration not stated)", "qualitative label": "Yes"}
{"molecule": "COc1cc2c3c(n(CCCN)c(=O)c2cc1OC)-c1ccc(F)cc1C3=O", "qualitative label": "No"}
{"molecule": "NC1=NC(c2ccccc2)N=C(Nc2ccccc2)N1 (configuration not stated)", "qualitative label": "No"}
{"molecule": "Cc1ccc(N=C2CSc3nnc(-c4csc5c4CCCC5)n3N2)cc1", "qualitative label": "Yes"}
{"molecule": "CCC(C(=O)[O-])C(=O)[O-].CCC(C(=O)[O-])C(=O)[O-].N.N.NCCCCCN.[Pt+4].[Pt+4]", "qualitative label": "No"}
{"molecule": "O=C(Nc1cnn2ccc(N3CCC[C@@H]3c3cc(F)ccc3F)nc12)N1CC[C@H](O)C1", "qualitative label": "No"}
{"molecule": "Cc1cc(S(=O)(=O)Nc2nc3ccsc3c(=O)n2Cc2ccco2)c(S)cc1Cl", "qualitative label": "No"}
{"molecule": "O=C1c2cccnc2-c2nc(/C=C/c3ccccc3)cc3c2c1nc1ccccc13", "qualitative label": "No"}
{"molecule": "Nc1ccc(C#Cc2cncnc2Nc2ccc(OCc3cccc(F)c3)c(Cl)c2)cc1", "qualitative label": "No"}
